// data source = ChEMBL document CHEMBL1136553

test system: Pseudomonas aeruginosa; assay: Antibacterial activity against Pseudomonas aeruginosa 1592E; assay type: functional
property.measured: MIC
Phrase the answer as number then unit, nothing more needed.

Worked examples follow.
C[C@@H](O)[C@H]1C(=O)N2C(C(=O)O)=C(S[C@@H]3CN[C@H](/C=C/c4ccno4)C3)[C@H](C)[C@H]12	0.195 µg/mL
C[C@@H](O)[C@H]1C(=O)N2C(C(=O)O)=C(SCCNC=N)C[C@H]12.O	1.56 µg/mL

Lookup: MIC / Pseudomonas aeruginosa / `C[C@@H](O)[C@H]1C(=O)N2C(C(=O)O)=C(S[C@@H]3CN[C@H](C(=O)N(C)C)C3)[C@H](C)[C@H]12`
0.195 µg/mL

Similarly, `C[C@@H](O)[C@H]1C(=O)N2C(C(=O)O)=C(S[C@@H]3CN[C@H](/C=C/c4ccsn4)C3)[C@H](C)[C@H]12` ?
1.56 µg/mL

For `C[C@@H](O)[C@H]1C(=O)N2C(C(=O)O)=C(S[C@@H]3CN[C@H](/C=C/c4ccns4)C3)[C@H](C)[C@H]12` then?
0.391 µg/mL

###

assay: Stability to porcine renal DHP-I; assay type: ADME, Sus scrofa; conditions: pig
Would you mind labelling by Relative t1/2? At or over 1 is fulfilled, under is not fulfilled.

Please check the record `C[C@@H](O)[C@H]1C(=O)N2C(C(=O)O)=C(S[C@@H]3CN[C@H](/C=C/c4ccsn4)C3)[C@H](C)[C@H]12` and state if its Relative t1/2 is at or above 1.
fulfilled

Now the compound `C[C@@H](O)[C@H]1C(=O)N2C(C(=O)O)=C(S[C@@H]3CN[C@H](/C=C/c4ccns4)C3)[C@H](C)[C@H]12`
fulfilled

Now give it for `C[C@@H](O)[C@H]1C(=O)N2C(C(=O)O)=C(SCCNC=N)C[C@H]12.O` too.
not fulfilled

Moving on to `C[C@@H](O)[C@H]1C(=O)N2C(C(=O)O)=C(S[C@@H]3CN[C@H](/C=C/c4ccno4)C3)[C@H](C)[C@H]12`
fulfilled
